# Test System: T1, Cynomolgus monkey CD98 ECD with C-terminal His-tag (cynomolgus monkey, UniProt P08195 105-529 (human entry))
# T1 construct: also called cyCD98 ECD; recombinant cynomolgus monkey CD98 extracellular domain
# T1 chain: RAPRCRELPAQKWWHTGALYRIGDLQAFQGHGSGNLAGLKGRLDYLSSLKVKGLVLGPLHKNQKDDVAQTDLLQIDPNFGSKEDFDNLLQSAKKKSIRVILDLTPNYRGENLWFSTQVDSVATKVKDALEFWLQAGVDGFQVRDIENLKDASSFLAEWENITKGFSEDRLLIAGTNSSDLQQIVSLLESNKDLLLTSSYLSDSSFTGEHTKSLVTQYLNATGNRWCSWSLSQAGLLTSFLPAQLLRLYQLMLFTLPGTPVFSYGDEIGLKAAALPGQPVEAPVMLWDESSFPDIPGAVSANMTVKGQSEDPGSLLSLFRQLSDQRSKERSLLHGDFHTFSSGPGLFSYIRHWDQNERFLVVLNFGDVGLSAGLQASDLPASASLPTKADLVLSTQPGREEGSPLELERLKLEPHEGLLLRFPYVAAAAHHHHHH
# Assay Summary: SPR Biacore, anti-Fc capture of mAb, CD98 ECD analyte
Attribute Measured: pKd
Give bare numbers, as −log10 of the molar value.

Known pKd results, listed for orientation:
# Binder, Quantitative Readout
data = [
    ("Anti-CD98 rat hybridoma antibody Ab10 (antibody, V domains shown) VH: EVQLVESGGGLVQPGRSLKLSCAASGFTFSDYAMAWVRQAPKKSLEWVATIIYDGRGTYCRDSVKGRFTISRDNAKSTLYLQMDSLRSEDTATYYCARQGDGTYHYWGYFDYWGQGVMVTVSS VL: DIVMTQSPSSLAVSAGETVTINCKSSQSLLSSGNQKNYLAWYQQKPGQSPKLLIYWASTRQSGVPDRFIGSGSGTDFTLTISSVQAEDLAIYYCQQYYDTPYTFGAGTKVDLK", 8.11),
    ("Anti-CD98 murine hybridoma antibody Ab3 (antibody, V domains shown) VH: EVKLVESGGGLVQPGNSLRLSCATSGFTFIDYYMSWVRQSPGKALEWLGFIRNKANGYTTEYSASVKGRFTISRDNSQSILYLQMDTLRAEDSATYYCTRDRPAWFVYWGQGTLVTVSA VL: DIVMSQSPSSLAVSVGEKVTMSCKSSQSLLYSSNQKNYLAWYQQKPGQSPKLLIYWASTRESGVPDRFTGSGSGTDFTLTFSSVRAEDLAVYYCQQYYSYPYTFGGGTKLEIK", 7.52),
]

Proceeding to the next binder to report its pKd.
Prompt line: // returns reported pKd for input Anti-CD98 rat hybridoma antibody Ab9 (antibody, V domains shown) VH: QVQLKESGPGLVQPSQTLSLTCAVSGFSLSNYGVIWVRQPPGKGLEWMAVIWTNGNTNYNSTLKSRLSISRDTSKSQVYLKMNSLQTEDTATYYCARHYYDGTYYYGYFDYWGQGVMVTVSS VL: DIVMTQTPSSQAVSAGEKVTMSCKSSQSLLYTENKKNYLAWYQQKPGQSPKLLIYWASTRESGVPDRFMGSGSGTDFTLTISSVQAEDLAVYYCQQYYYFPYMFGAGTKLELK
Response line: 8.00
